TESTED TARGET: SERT (Homo sapiens)
Sequence (P31645 whole entry, species assumed): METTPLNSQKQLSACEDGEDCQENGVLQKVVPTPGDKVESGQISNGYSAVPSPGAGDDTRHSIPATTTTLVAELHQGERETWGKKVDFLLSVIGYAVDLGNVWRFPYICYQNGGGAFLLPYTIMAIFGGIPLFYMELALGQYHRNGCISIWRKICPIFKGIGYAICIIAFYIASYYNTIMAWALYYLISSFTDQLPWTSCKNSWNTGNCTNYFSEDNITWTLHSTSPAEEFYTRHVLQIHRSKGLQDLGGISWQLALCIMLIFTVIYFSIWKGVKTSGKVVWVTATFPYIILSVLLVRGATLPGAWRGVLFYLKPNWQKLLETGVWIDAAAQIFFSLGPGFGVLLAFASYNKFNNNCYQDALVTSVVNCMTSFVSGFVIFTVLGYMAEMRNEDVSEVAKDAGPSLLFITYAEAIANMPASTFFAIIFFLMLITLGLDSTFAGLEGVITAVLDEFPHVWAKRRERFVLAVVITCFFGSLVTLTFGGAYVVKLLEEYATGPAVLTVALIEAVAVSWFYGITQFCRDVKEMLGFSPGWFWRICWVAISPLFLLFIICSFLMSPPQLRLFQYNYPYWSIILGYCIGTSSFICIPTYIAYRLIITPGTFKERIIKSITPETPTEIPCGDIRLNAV
ASSAY OVERVIEW: SERT inhibition assay (Neurotransmitter Transportation Fluorescence assay)
SETUP CONDITIONS: stable 5HTT cells, assay of Example B1
pIC50: −log10 of the molar value.
ASSAY ENDPOINT: pIC50

COMPOUND: COc1ccc([C@]23CCN(C)[C@H]2CC(=O)C[C@H]3C)cc1OC (single isomer, unassigned)
TESTED TARGET: SERT (Homo sapiens)
ASSAY VALUE: > 6.60

Please examine the following record next.
## Input Would you kindly share the measured pIC50 for COc1ccc([C@@]23CCN(C)[C@@H]2CC(=O)C[C@@H]3C)cc1OC (single isomer, unassigned) ?
## Output > 6.60
